- method_summary: Assay I: SNAC solubility in combination with selected hydrotropes
- protocol_conditions: hydrotrope 200 mg/mL in ultrapure water, pH 6, 200 mg SNAC added, 4 hours at room temperature, RP-HPLC
assay_metric: SNAC concentration (mg/mL)

> print(dat)
                                   molecule        assay.metric  reported.measurement
1  CCN(CC)C(=O)c1cccnc1 [N,N diethyl nicotinamide]  SNAC concentration                  4.58

(I) CN(C)C(=O)c1ccccc1 [N,N dimethyl benzamide]
(II) O=C(O[C@@H]1Cc2c(O)cc(O)cc2O[C@@H]1c1cc(O)c(O)c(O)c1)c1cc(O)c(O)c(O)c1 [Epigallocatechin gallate]
(III) NC(N)=O
[Q] Ranking field: SNAC concentration; order: falling. Quick reminder: the answer is the labels in the order asked.
[A] I, II, III
